system: SF-539; assay: NCI tumour cell line growth inhibition, 48 h
Calls of active or inactive are those of the source. No stated cut-off is given here; in the data, active = GI50 up to about 1.1 µM and inactive = higher.
measure: GI50

Reference set, count: 4
CC1=C(CO)C(=O)O[C@@H]([C@@H](CO)[C@H]2CCC3C4C[C@@H](O)[C@@]5(O)CC=CC(=O)[C@]5(C)C4CC[C@@]32C)C1 (stereo not given in full)    53.8 µM (inactive)
NC(=O)C(Nc1ccc(Cl)cc1)c1cc2cc(Br)ccc2nc1Cl (stereo not given)    18.5 µM (inactive)
C1CCNCC1.O=C1NC(=S)N/C1=C/c1ccccc1O    > 100 µM (inactive)
Cc1cn(C2CCC(/C=N\O)O2)c(=O)[nH]c1=O (stereo not given)    > 100 µM (inactive)

Using the record for CC1=Nc2c(ccc3c2C(=O)c2ccccc2C3=O)NC(c2cccc3c2CCC3)C1 (stereo not given) , state its measured GI50.
> 100 µM (inactive)

* * *

tested on: SK-MEL-5; assay: NCI tumour cell line growth inhibition, 48 h
Activity calls are given as the source filed them. Cut-off read from the data, not from the text of the source: active = GI50 up to about 1.1 µM and inactive = higher.
measure: GI50

Known results for molecules:
O=C1C(NCCO)=C(N2CC2)C(=O)C(NCCO)=C1N1CC1    50 µM (inactive)
O=C(c1cccs1)N(C(=S)N1CCN(c2ccccn2)CC1)C1CCCCC1    31.3 µM (inactive)

Let us move to another entry and its GI50.
Give the value of GI50 reported for the following: `CCNC1=C(NC(=O)CCl)C(=O)c2ccccc2C1=O`
16.7 µM (inactive)

* * *

Items are presented alongside their recorded GI50.
system: HCT-15; experiment: NCI tumour cell line growth inhibition, 48 h

CN(C)/C(N)=N\C#N    18.9 µM

Report GI50, nothing else, for this molecule: `COc1cccc(NC(=O)CSc2nnc(-c3ccc(NC(C)=O)cc3)o2)c1`
> 100 µM

Item `CN1CCN(c2ccncc2S(=O)(=O)N2CCN(C)CC2)CC1` : provide GI50
> 100 µM

* * *

test system: HT-29; assay: NCI tumour cell line growth inhibition, 48 h
Activity calls are given as the source filed them. Cut-off read from the data, not from the text of the source: active = GI50 up to about 1.1 µM and inactive = higher.
measure: GI50

Read off the recorded GI50 for CCC(C)C(N)C(=O)NC(CC(N)=O)C(=O)NC(CC(C)C)C(=O)NC(CCCCN)C(=O)NC(C)C(=O)NC(CC(C)C)C(=O)NC(C)C(=O)NC(C)C(=O)NC(CC(C)C)C(=O)NC(C)C(=O)NC(CCCCN)C(=O)NC(CCCCN)C(=O)NC(C(=O)NC(CC(C)C)C(N)=O)C(C)CC (centres undefined)
19.5 µM (inactive)

For `COc1cc2c[n+](C)c3c4cc(OC)c(OCc5ccccc5)cc4c(OCc4ccccc4)cc3c2cc1OC` , write its GI50.
3.61 µM (inactive)

Return GI50 for the following molecule: Cc1cccc2c1Oc1cc(Cl)ccc1C2NC(=O)CCN1CCN(CCO)CC1 (centres undefined)
15 µM (inactive)

Please give measured GI50 of the following entry: `Cc1ccc(S(=O)(=O)Nc2cccc3c(=O)nc[nH]c23)cc1`
> 100 µM (inactive)

* * *

system: K562; experiment: NCI tumour cell line growth inhibition, 48 h
Activity calls are given as the source filed them. No stated cut-off is given here; in the data, active = GI50 up to about 1.1 µM and inactive = higher.
The reply should name one outcome from T (active), F (inactive)

Some solved entries appear below for comparison.
CN(C)CC/C(=N\Nc1ccccc1)c1ccccc1    F
CCOC(=O)C1C(C)C2(C#N)C(=N)OC1(C)C2(C#N)C#N (stereo unspecified)    F
COC(=O)C1CC(C=[N+](C)C)=C(SC)N1C(=O)OCc1ccccc1 (stereo unspecified)    F

Just curious, what result did `COC(=O)c1nn2ccc3ccccc3c2c1C(=O)OC` get here?
F

What did the test return for `O=C(Nc1ccccc1)c1cc(S(=O)(=O)N2CCNC2=O)c(S)cc1Cl` ?
F

I'd appreciate the recorded outcome for `COc1ccc(C(c2c[nH]c3ccc(Br)cc23)c2c[nH]c3ccc(Br)cc23)cc1` from this test.
T

Call for entry COC(=O)CCC1=C(CC(=O)OC)C(C)(OC)N/C1=N/C(=O)OCc1ccccc1 (stereo unspecified) :
F

Test call, this compound: `CCOC(=O)C(C(=O)c1ccccc1)=C1NCCN1`
F

What outcome does the record of this test show for C[C@]12CCCC(=O)C1C[C@H](C(=O)O)CC2 (stereo partly specified) ?
F

GET /call?item= O=S(=O)(c1ccccc1)N1CCCC(c2ccccc2)CC1 (stereo unspecified) returns the recorded outcome of this test.
F

How did this test come out for `COCc1nc(C#N)c(N)o1` ?
F
